experiment-description: Pharmacokinetics of memantine with sodium hydroxide, menthol and NH4Cl in male beagle dogs (Example 3)
Assay type: in vivo, beagle dog
experimental-conditions: male, beagle, dog, plasma, po, 0.4 mg/kg, MMT 0.4 mg/kg, 3.3 mg/ml sodium hydroxide + 5 mg/ml menthol
parameter: AUC(0-inf)
Note: a bare number is incomplete; add the unit.

## Task Quickly give me recorded AUC(0-inf) for CC12CC3CC(C)(C1)CC(N)(C3)C2 [Memantine]
## Result 126 ng·h/mL

###

experiment-description: Pharmacokinetics of memantine after oral or buccal dosing in male beagle dogs (Example 2)
Format: in vivo, beagle dog
experimental-conditions: male, beagle, dog, plasma, 0.4 mg/kg, MMT 0.4 mg/kg Buccal + 3.3 mg/ml NaOH
parameter: Cmax

## Task Quickly give me recorded Cmax for CC12CC3CC(C)(C1)CC(N)(C3)C2 [Memantine]
## Result 52 ng/mL

// data source = patent US8501816B2
